- target entity: CD73 (Homo sapiens (Human))
- assay details: Cellular CD73 Assay (primary human CD3+ T-cells with AMP)
- measurement conditions: primary human peripheral blood CD3+ T-cells, 40 μM AMP, 3 days; readout (cell division or IL-2/IFN-γ) not specified for the column
- Description: Primary human peripheral blood CD3+ T-cells obtained from AllCells were thawed and cultured for 24 h in a complete growth medium (Stemline T-cell expansion medium, Sigma #S1694) supplemented with 1 mM L-glutamine, 50 IU/mL of IL-2 and 25 μL/mL of Dynabeads™ Human T-Activator CD3/CD28 (Thermo-Fisher #11161D) at a density of 10^6 cells/mL. […] Divided and non-divided live cells were quantified by Attune NxT flow cytometer. […]
pEC50: −log10 of the molar value.
readout kind: pEC50

For CCC(=O)NS(C)(=O)=NC(=O)[C@@](COC)(OC[C@H]1O[C@@H](n2ncc3c(NC4CCCC4)nc(Cl)nc32)[C@H](O)[C@@H]1O)P(=O)(O)O (stereo partly drawn) [Example 14] , what is its reported pEC50?
8.94

I. COC[C@@](OC[C@H]1O[C@@H](n2ncc3c(NC4CCCC4)nc(Cl)nc32)[C@H](O)[C@@H]1O)(C(=O)N=[S@@](C)(=O)NC(=O)C1CC1)P(=O)(O)O
II. COC[C@@](OC[C@H]1O[C@@H](n2ncc3c(NC4CCCC4)nc(Cl)nc32)[C@H](O)[C@@H]1O)(C(=O)N=S(C)(=O)NC(=O)C(C)C)P(=O)(O)O (single isomer, unassigned) [Example 15]
// returns I or II , whichever has the lower pEC50 Output the label that corresponds to your choice.
II
(II: 8.11, I: 9.05)

###

- target entity: CD73 (Homo sapiens (Human), UniProt P21589)
- Sequence (P21589 27-574): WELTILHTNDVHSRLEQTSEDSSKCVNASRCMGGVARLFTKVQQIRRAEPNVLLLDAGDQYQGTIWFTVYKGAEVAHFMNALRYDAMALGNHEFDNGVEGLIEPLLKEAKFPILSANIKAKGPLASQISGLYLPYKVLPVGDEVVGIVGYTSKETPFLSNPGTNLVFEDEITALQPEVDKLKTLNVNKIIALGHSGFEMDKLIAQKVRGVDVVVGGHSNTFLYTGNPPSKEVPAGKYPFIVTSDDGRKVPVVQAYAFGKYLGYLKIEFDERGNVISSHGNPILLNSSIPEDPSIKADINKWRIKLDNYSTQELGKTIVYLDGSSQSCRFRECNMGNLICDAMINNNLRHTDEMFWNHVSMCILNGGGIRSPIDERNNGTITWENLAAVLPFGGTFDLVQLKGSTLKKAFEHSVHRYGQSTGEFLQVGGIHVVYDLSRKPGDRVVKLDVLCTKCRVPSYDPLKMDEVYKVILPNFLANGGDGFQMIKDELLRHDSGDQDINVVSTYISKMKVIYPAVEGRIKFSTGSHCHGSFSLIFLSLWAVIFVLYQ
- assay details: Biochemical CD73 Assay (Malachite Green free phosphate detection)
- measurement conditions: recombinant human CD73 2 nM, AMP 40 μM, 45 min at 37° C.
readout kind: IC50 (nM)

For COC[C@@](OC[C@H]1O[C@@H](n2ncc3c(NC4CCCC4)nc(Cl)nc32)[C@H](O)[C@@H]1O)(C(=O)N=[S@@](C)(=O)NC(=O)c1cnn(C)c1)P(=O)(O)O (single isomer, unassigned) , what is its reported IC50?
0.47

For `COC[C@@](OC[C@H]1O[C@@H](n2ncc3c(NC4CCCC4)nc(Cl)nc32)[C@H](O)[C@@H]1O)(C(=O)N=[S@](C)(=O)NC(=O)C1CC1)P(=O)(O)O` , what is its reported IC50?
0.45

P. CNC(=O)N[S@](C)(=O)=NC(=O)[C@@](COC)(OC[C@H]1O[C@@H](n2ncc3c(NC4CCCC4)nc(Cl)nc32)[C@H](O)[C@@H]1O)P(=O)(O)O
Q. COC[C@@](OC[C@H]1O[C@@H](n2ncc3c(NC4CCCC4)cc(Cl)nc32)[C@H](O)[C@@H]1O)(C(=O)N=[S@@](C)(=O)NC(=O)C(C)C)P(=O)(O)O
Which item exceeds the other in IC50, P or Q ? Output the label that corresponds to your choice.
Q

a. COC[C@@](OC[C@H]1O[C@@H](n2ncc3c(NC4CCCC4)nc(Cl)nc32)[C@H](O)[C@@H]1O)(C(=O)N=[S@](C)(=O)NC(=O)c1ccc(F)cc1)P(=O)(O)O (single isomer, unassigned)
b. CNC(=O)N[S@@](C)(=O)=NC(=O)[C@@](COC)(OC[C@H]1O[C@@H](n2ncc3c(NC4CCCC4)nc(Cl)nc32)[C@H](O)[C@@H]1O)P(=O)(O)O
c. COC[C@@](OC[C@H]1O[C@@H](n2ncc3c(NC4CCCC4)nc(Cl)nc32)[C@H](O)[C@@H]1O)(C(=O)N=[S@@](C)(N)=O)P(=O)(O)O
d. COC[C@](OC[C@H]1O[C@@H](n2ncc3c(NC4CCCC4)nc(Cl)nc32)[C@H](O)[C@@H]1O)(C(=O)N=[S@](C)(N)=O)P(=O)(O)O
Ordering criterion: IC50; begin with the maximum. // respond by listing labels in the order requested
d, a, c, b
(d: 19 nM, a: 2.36 nM, c: 1 nM, b: 0.31 nM)
